# EXPERIMENTAL_TARGET: alpha1-adrenoceptor
# TEST_METHOD_NOTES: [3H]-Prazosin binding assay (affinity for alpha1-adrenoceptors)
# CONDITION_INFO: partially purified rat brain membranes; 0.2 nM [3H]-prazosin, 60 min, 25° C.
TEST_READOUT: IC50 (nM)

Some molecules with known IC50 results, for comparison:
> print(dat)
                                   molecule  recorded.value
1  COC(=O)C1=C(C)NC(C)=C([N+](=O)[O-])C1c1ccccc1OCCCCCN1CCN(c2ccc(OC(C)C)nn2)CC1 (stereo not drawn)           15000
2  CC1=C(C(=O)OCCCCN2CCN(c3ncccn3)CC2)C(c2cccn2C)C([N+](=O)[O-])=C(C)N1 (stereo not drawn)             750
3  CC1=C(C(=O)OCCN2CCN(c3ncccn3)CC2)C(c2ccoc2)C([N+](=O)[O-])=C(C)N1 (stereo not drawn)            5200
4  CCCOc1cc(N2CCN(CCCCCOc3ccccc3C3C(C(=O)OC)=C(C)NC(C)=C3[N+](=O)[O-])CC2)ncn1 (stereo not drawn)            5300
5  COc1ccccc1N1CCN(CCCCOC(=O)C2=C(C)NC(C)=C([N+](=O)[O-])C2c2cccs2)CC1 (stereo not drawn)              60

A. CC1=C(C(=O)OCCCCN2CCN(c3ncccn3)CC2)C(c2ccoc2)C([N+](=O)[O-])=C(C)N1 (stereo not drawn)
B. CC1=C(C(=O)OCCCCN2CCN(c3ncccn3)CC2)C(c2cccnc2)C([N+](=O)[O-])=C(C)N1 (stereo not drawn)
Hi there, can you help? I need to know whether A or B has lower measured IC50. Please reply using the label of the selected record.
B

P. CC1=C(C(=O)OCCCCN2CCN(c3ncccn3)CC2)C(c2ccco2)C([N+](=O)[O-])=C(C)N1 (stereo not drawn)
Q. COC(=O)C1=C(C)NC(C)=C([N+](=O)[O-])C1c1ccoc1CCCCCN1CCN(c2ccccc2OC)CC1 (stereo not drawn)
Of P and Q , which carries the smaller reported IC50 figure? Identify your selection by its label.
Q
(Q: 130 nM, P: 840 nM)
